Attribute: melting point

Some solved entries appear below for comparison.
compound="O=C(NO)c1ccc(N2CCN(C(=O)c3cc(-c4ccc(NC(=O)c5ccc(F)cc5F)cc4)nc4ccccc34)CC2)cc1 [Compound D24]" reported_result="175.3 to 176.3 °C"
compound="CN(C)c1ccc(-c2cc(C(=O)N3CCN(c4ccc(C(=O)NO)cc4)CC3)c3ccccc3n2)cc1 [Compound D18]" reported_result="200.6 to 201.2 °C"
compound="O=C(NO)c1ccc(N2CCN(C(=O)c3cc(-c4ccc(NC(=O)c5cccc(Br)c5)cc4)nc4ccccc34)CC2)cc1 [Compound D21]" reported_result="170.5 to 170.8 °C"

Ask | Any idea what its melting point is? The compound is O=C(NO)c1ccc(N2CCN(C(=O)c3cc(-c4ccc(NC(=O)c5ccccc5Cl)cc4)nc4ccccc34)CC2)cc1 [Compound D23]
Reply | 167.2 to 167.8 °C

Hey, just so you know, these numbers are from paper PMC9333195.
